# assay method text: Total Fluorescence Confirmation Counterscreen for Inhibitors of the Interaction of Thyroid Hormone Receptor and Steroid Receptor Coregulator 2, Fluorescein Fluoroprobe
# protocol conditions: TRbeta/SRC2-fluorescein mix, total fluorescence interference; series mostly up to 92.2 µM
Records with an inconclusive call do not appear. Active and inactive are the calls of the source. Calls come from the whole dose curve; as a rule, active = well fitted curve in the direction sought with a large enough effect; inconclusive = small, poorly fitted or top-dose-only effect, or effect the other way; inactive = flat fitted curve, though single readings scatter.
readout type: total fluorescence change, positive = fluorescent

1) CCCc1cc(=O)[nH]c(=S)[nH]1 | inactive
2) CS(=O)(=O)c1ccc(C(=O)OCC(=O)NC(=O)C2CCCCC2)cc1[N+](=O)[O-] | 3.5% [at 0.0112 µM] (inactive)
3) COc1ccc2c(c1)-c1nc(/N=C/c3c(O)ccc4ccccc34)sc1CC2 | 29.6% [at 5.76 µM] (inactive)
4) O=C1CCCC(O)=C1N=Nc1cccc(S(=O)(=O)N2CCOCC2)c1 | inactive
5) CCN(CC)S(=O)(=O)c1cccc(N=NC2=C(O)CCCC2=O)c1 | 7.56% [at 0.0112 µM] (inactive)
6) Cc1c(C#N)c(O)n(CCO)c(=O)c1N=Nc1ccc2c(c1)COC2=O | inactive
7) CCc1ccc2c(c1)c1nc(C)sc1n2CC | inactive
8) Cc1[nH][nH]c(=O)c1C(c1ccc(-c2ccccc2C(=O)O)o1)c1c(C)[nH][nH]c1=O | inactive
9) O=C(NNc1cc(N2CCOCC2)nc(N2CCOCC2)n1)c1ccc([N+](=O)[O-])cc1 | 19.9% [at 11.6 µM] (inactive)
10) Cc1cccc(S(=O)(=O)c2cn(Cc3ccccc3)c3cc(N4CCC(C)CC4)c(F)cc3c2=O)c1 | inactive
11) COc1cc(/C=C(\C#N)C(=O)NCC2CCCO2)ccc1OCCC(C)C (stereo not drawn) | inactive
12) Cn1c(=O)[nH]c2nnc(-c3ccc(Cl)c(Cl)c3)nc2c1=O | inactive
13) CN(C(=S)Nc1cccnc1)c1ccc(O)cc1 | inactive
14) CN(CCO)c1nc(N)c2c(N)nc3c(c2c1C#N)CC(=O)N3C1CCCC1 | 13.6% [at 11.6 µM] (inactive)
15) Cc1nc2c3cc(F)ccc3n(Cc3ccccc3F)c2s1 | inactive
16) CC(NC(=O)Nc1ccc(O)cc1)(C(F)(F)F)C(F)(F)F | 8.06% [at 11.6 µM] (inactive)
17) CC1=NN(Cc2ccccc2)C(=O)C1 | inactive
18) O=C(NNc1cc(N2CCOCC2)nc(N2CCOCC2)n1)c1ccc(Cl)c(Cl)c1 | inactive

###

# assay method text: Total Fluorescence Confirmation Counterscreen for Inhibitors of the Interaction of Thyroid Hormone Receptor and Steroid Receptor Coregulator 2, Fluorescein Fluoroprobe
# protocol conditions: TRbeta/SRC2-fluorescein mix, total fluorescence interference; series mostly up to 92.2 µM
Results filed as inconclusive are left out. Activity calls are given as the source filed them. Calls come from the whole dose curve; as a rule, active = well fitted curve in the direction sought with a large enough effect; inconclusive = small, poorly fitted or top-dose-only effect, or effect the other way; inactive = flat fitted curve, though single readings scatter.
readout type: total fluorescence change, positive = fluorescent

1) Cc1ccc(OC(=S)Nc2ccc(O)cc2)cc1 | inactive
2) CCCCOc1ccc(C(=O)CCN2CCOCC2)cc1 | inactive
3) COn1c2c(c3c4nonc4ccc31)CCCC2 | inactive
4) CCOc1ccc(NC(=O)C(c2ccccn2)N(C(=O)CCl)c2ccc(F)cc2)cc1 (centres undefined) | 17.5% [at 5.76 µM] (inactive)
5) Nc1c(C(=O)NCc2ccco2)c2nc3ccccc3nc2n1CCc1ccccc1 | inactive
6) Cc1nnc(SCC(=O)Nc2ccc(N(C)C)cc2)[nH]c1=O | inactive
7) Cn1cc[nH]c1=S | inactive
8) CCN(C(=O)C1CCCN(c2ncnc3onc(-c4ccc(F)cc4)c23)C1)c1ccccc1 (centres undefined) | inactive
9) COc1cc(NCCCC(C)N)c2ncccc2c1 (centres undefined) | -9.55% [at 11.6 µM] (inactive)
10) CCC(NC(=O)Nc1ccc(O)cc1)(C(F)(F)F)C(F)(F)F | inactive
11) Cn1c(CCN2CCCCC2)nc2cc(NS(=O)(=O)c3ccc(Cl)cc3)ccc21 | 13% [at 0.0112 µM] (inactive)
12) COC(=O)/C(=C/Nc1ccc(O)cc1)[N+](=O)[O-] | 0.349% [at 5.76 µM] (inactive)
13) CN1N=C(C(C)(C)C)CC1=O | inactive
14) O=C(O)/C=C/C(=O)Nc1ccc(OC(F)(F)F)cc1Br | 17.7% [at 0.0112 µM] (inactive)
15) CCSc1ncc(Cl)c(C(=O)Nc2nc3ccc(OC)cc3s2)n1 | inactive
16) Cc1cc2ccccc2n1CCNC(=O)C(C)Oc1ccccc1 (centres undefined) | inactive
17) CC(=O)NC1N=C(C)N(c2ccccc2)C1=O (centres undefined) | inactive
18) C=CCNC(=O)/C(C#N)=C\c1cc(Cl)c(OCC)c(OC)c1 | inactive
19) CCOc1cc(C(c2c(C)[nH][nH]c2=O)c2c(C)[nH][nH]c2=O)ccc1OS(=O)(=O)c1ccc(C)cc1 | inactive
20) COc1ccc2ccc3c(c2c1)N=CC1(O3)N(C)c2ccccc2C1(C)C (centres undefined) | -5.71% [at 0.0112 µM] (inactive)
21) O=C(O)C1C2C=CC(O2)C1C(=O)Nc1ccc(S(=O)(=O)N2CCc3ccccc32)cc1 (centres undefined) | 3.65% [at 11.6 µM] (inactive)
22) Cc1cc(C)cc(OCC(=O)NCCc2nc3ccccc3[nH]2)c1 | inactive
23) O=C(O)[C@H]1CN(CCCP(=O)(O)O)CCN1 | inactive
24) O=C(/C=C/c1ccco1)NC(=S)Nc1cc(C(F)(F)F)ccc1N1CCOCC1 | inactive
